Please provide measured Inhibition for the entries that follow.
- Tested on: Candida albicans
- setup_conditions: 20 µM
- Description: Antifungal activity against Candida albicans ATCC 90028 (CO-ADD:FG_001); MIC in YNB media using NBS plates, by OD630
Entries with a potency or affinity are not part of this list.
The figure you give is taken to be in %; do not add the unit.

Report Inhibition for Cl.Nc1nc2ccc(OC(F)(F)F)cc2s1 tested on Candida albicans. 2.98

Short answer please: Inhibition, Candida albicans, entry CCC(=O)O[C@]1(C(=O)CCl)[C@@H](C)C[C@H]2[C@@H]3CCC4=CC(=O)C=C[C@]4(C)[C@@]3(F)[C@@H](O)C[C@@]21C [CLOBETASOL PROPIONATE] 0.73

Give Inhibition (Candida albicans) of the following molecule: CC(C)NCC(O)c1cc(O)cc(O)c1 (stereo not given) 1.29

Short answer please: Inhibition, Candida albicans, entry CCCc1nc(C)c2c(O)nc(-c3cc(S(=O)(=O)N4CCN(CC)CC4)ccc3OCC)nn12.O=C(O)CC(O)(CC(=O)O)C(=O)O 4.67

So what Inhibition did COc1cc(OC)c(C(=O)CCCN2CCCC2)c(OC)c1.Cl get with Candida albicans? 3.75

Item Cc1cccc(C)c1NC(=O)C(C)N (stereo not given) [TOCAINIDE] with Candida albicans - Inhibition? 1.33

Entry Cl.NC12CC3CC(CC(C3)C1)C2 [AMANTADINE HYDROCHLORIDE] , system Candida albicans: what Inhibition was measured? 3.06

Which measured Inhibition belongs to CNCCCN1c2ccccc2CCc2ccccc21.Cl [DESIPRAMINE HYDROCHLORIDE] , tested on Candida albicans? 2.92

Param readout = Inhibition; param system = Candida albicans; param query = CC1(C)O[C@@H]2C[C@H]3[C@@H]4C[C@H](F)C5=CC(=O)C=C[C@]5(C)[C@H]4[C@@H](O)C[C@]3(C)[C@]2(C(=O)CO)O1 [FLUNISOLIDE] ; response: value 7.13

Notebook entry, Candida albicans assay: Inhibition of Nc1ncnc2c1ncn2[C@@H]1O[C@H](CO)C[C@@H]1O.O = ? 5.13

Recorded Inhibition for CC1(C)C[C@@H]1C(=O)N/C(=C\CCCCSC[C@H](N)C(=O)O)C(=O)[O-].[Na+] [CILASTATIN SODIUM] with Candida albicans, please? 5.18

Form field: Inhibition recorded for CN1C(C(=O)Nc2ccccn2)=C(O)c2ccccc2S1(=O)=O.O with Candida albicans (enter value) 7.55

Record CC(C)NCC(O)COc1ccc(COCCOC(C)C)cc1.CC(C)NCC(O)COc1ccc(COCCOC(C)C)cc1.O=C(O)/C=C/C(=O)O (stereo not given) [BISOPROLOL FUMARATE] : what is its Inhibition with Candida albicans? 0.23

Give Candida albicans Inhibition for CN1CCCC(n2nc(Cc3ccc(Cl)cc3)c3ccccc3c2=O)CC1.Cl (stereo not given) [AZELASTINE HYDROCHLORIDE] 4.45

Fill in the recorded Inhibition for this molecule, with Candida albicans as test system: CC1CNc2c(cccc2S(=O)(=O)N[C@@H](CCCNC(=N)N)C(=O)N2CC[C@@H](C)C[C@@H]2C(=O)O)C1 (stereo not given in full) 4.39

Given the entry Nc1c2c(nc3c1CCC3)CCCC2 , what Inhibition was observed with Candida albicans? 3.22

Hello, I am looking for reported Inhibition with Candida albicans for CC(=O)O.CC(C)C[C@H](NC(=O)[C@@H](COC(C)(C)C)NC(=O)[C@H](Cc1ccc(O)cc1)NC(=O)[C@H](CO)NC(=O)[C@H](Cc1c[nH]c2ccccc12)NC(=O)[C@H](Cc1c[nH]cn1)NC(=O)[C@H]1CCC(=O)N1)C(=O)N[C@H](CCCNC(=N)N)C(=O)N1CCC[C@@H]1C(=O)NNC(N)=O . Could you help? 2.52

Record O=C1Nc2ccc(Cl)cc2[C@@](C#CC2CC2)(C(F)(F)F)O1 : what is its Inhibition with Candida albicans? 3.86

Which Inhibition is reported with Candida albicans for this entry: COc1ccc(-c2oc3c(CC=C(C)C)c(O[C@@H]4O[C@H](CO)[C@@H](O)[C@H](O)[C@H]4O)cc(O)c3c(=O)c2O[C@@H]2O[C@@H](C)[C@H](O)[C@@H](O)[C@H]2O)cc1 ? 4.36

// fetch Candida albicans Inhibition for CCCCC(=O)O[C@H]1CC[C@H]2[C@@H]3CCc4cc(O)ccc4[C@H]3CC[C@]12C [ESTRADIOL VALERATE] 0.66

Give recorded Inhibition with Candida albicans for the following molecule: Cc1cccc(C)c1NC(=O)C1CCCCN1C.Cl (stereo not given) [MEPIVACAINE HYDROCHLORIDE] -0.43

Write down the reported Inhibition of Cc1c(C(=O)NN2CCCCC2)nn(-c2ccc(Cl)cc2Cl)c1-c1ccc(I)cc1 , test system: Candida albicans. 7.4

# query: Inhibition | item CC[C@H](C)C(=O)O[C@H]1CCC=C2C=C[C@H](C)[C@H](CC[C@@H]3C[C@@H](O)CC(=O)O3)[C@H]21 | system: Candida albicans 24.7

# returns recorded Inhibition (system: Candida albicans) for COc1ccccc1OCC(O)CN1CCN(CC(=O)Nc2c(C)cccc2C)CC1.Cl.Cl (stereo not given) [RANOLAZINE HYDROCHLORIDE] 1.45

Return Inhibition measured with Candida albicans given this molecule: CC(C)(C(=O)O)c1ccc(C(O)CCCN2CCC(C(O)(c3ccccc3)c3ccccc3)CC2)cc1.Cl (stereo not given) [FEXOFENADINE HYDROCHLORIDE] 1.18

Provide value of Inhibition for this record tested with Candida albicans: C[C@@H]1C[C@H]2[C@@H]3CCC4=CC(=O)C=C[C@]4(C)[C@@]3(F)[C@@H](O)C[C@]2(C)[C@H]1C(=O)CO 2.64

Candida albicans / Inhibition / CCCNC(=O)NS(=O)(=O)c1ccc(Cl)cc1 [CHLORPROPAMIDE] : value? 3.19

Can you look up Inhibition on Candida albicans for CC(=O)OCC(=O)NCCCOc1cccc(CN2CCCCC2)c1.Cl [ROXATIDINE ACETATE HYDROCHLORIDE] ? 3.06

Hello, I am looking for reported Inhibition with Candida albicans for O=C(O)COCCN1CCN([C@H](c2ccccc2)c2ccc(Cl)cc2)CC1 . Could you help? 0.53

Request body: readout Inhibition, system Candida albicans, query Nc1ccc(O)c(C(=O)O)c1 . Return the value. 1.32

Attribution: ChEMBL document CHEMBL4513141
